test method notes: Nephrotoxicity against HEK293 cells assessed as cell viability incubated for 24 hrs by MTT assay
Format: toxicity, cell-based
assay setup: human
Peptide text beside a SMILES is read from it.
What IC50 at 24 h was measured for each of the following?
The answer is to be given in mg/L; state only the numeric part.

// query IC50 at 24 h value for entry CC(C)C[C@@H]1NC(=O)[C@H](CCCN)NC(=O)[C@H](C(C)C)NC(=O)[C@@H]2CCCN2C(=O)[C@@H](Cc2ccccc2)NC(=O)[C@H](CC(C)C)NC(=O)[C@H](CCCN)NC(=O)[C@H](C(C)C)NC(=O)[C@@H]2CCCN2C(=O)[C@@H](CCCNC(=N)N)NC1=O (HELM PEPTIDE1{L.[dF].P.V.[Orn].L.[dR].P.V.[Orn]}$PEPTIDE1,PEPTIDE1,1:R1-10:R2$$$V2.0)
18.7

Which value of IC50 at 24 h has been reported for CC(C)C[C@@H]1NC(=O)[C@H](CCCN)NC(=O)[C@H](C(C)C)NC(=O)[C@H](Cc2c[nH]c3ccccc23)NC(=O)[C@@H](Cc2ccccc2)NC(=O)[C@H](CC(C)C)NC(=O)[C@H](CCCN)NC(=O)[C@H](C(C)C)NC(=O)[C@H](Cc2c[nH]c3ccccc23)NC(=O)[C@@H](CCCNC(=N)N)NC1=O (HELM PEPTIDE1{L.[dF].W.V.[Orn].L.[dR].W.V.[Orn]}$PEPTIDE1,PEPTIDE1,1:R1-10:R2$$$V2.0) in the records?
5.36

* * *

test method notes: Therapeutic index, ratio of HC50 for human RBC to MIC for antibacterial activity against methicillin-sensitive Staphylococcus aureus ATCC 29213 clinical isolate
Format: toxicity, cell-based
assay setup: pooled result: one value given for 2 cell lines, strains, targets or settings, read-out: TI
Peptide text beside a SMILES is read from it.
metric: selectivity ratio
Write no unit; give the number alone.

Can you look up the measured selectivity ratio of CC(C)C[C@@H]1NC(=O)[C@H](CCCN)NC(=O)[C@H](C(C)C)NC(=O)[C@H](Cc2c[nH]c3ccccc23)NC(=O)[C@@H](Cc2ccccc2)NC(=O)[C@H](CC(C)C)NC(=O)[C@H](CCCN)NC(=O)[C@H](C(C)C)NC(=O)[C@H](Cc2c[nH]c3ccccc23)NC(=O)[C@@H](Cc2ccccc2)NC1=O (HELM PEPTIDE1{L.[dF].W.V.[Orn].L.[dF].W.V.[Orn]}$PEPTIDE1,PEPTIDE1,1:R1-10:R2$$$V2.0) for me?
1.75

Name the reported selectivity ratio value associated with the compound CC(C)C[C@@H]1NC(=O)[C@H](CCCN)NC(=O)[C@H](C(C)C)NC(=O)[C@H](Cc2c[nH]c3ccccc23)NC(=O)[C@@H](Cc2c[nH]c3ccccc23)NC(=O)[C@H](CC(C)C)NC(=O)[C@H](CCCN)NC(=O)[C@H](C(C)C)NC(=O)[C@H](Cc2c[nH]c3ccccc23)NC(=O)[C@@H](Cc2c[nH]c3ccccc23)NC1=O
1.74

Would you mind telling me what selectivity ratio value was observed for CC(C)C[C@@H]1NC(=O)[C@H](CCCN)NC(=O)[C@H](C(C)C)NC(=O)[C@@H]2CCCN2C(=O)[C@@H](Cc2ccccc2)NC(=O)[C@H](CC(C)C)NC(=O)[C@H](CCCN)NC(=O)[C@H](C(C)C)NC(=O)[C@H](Cc2c[nH]c3ccccc23)NC(=O)[C@@H](Cc2c[nH]c3ccccc23)NC1=O (HELM PEPTIDE1{L.[dF].P.V.[Orn].L.[dW].W.V.[Orn]}$PEPTIDE1,PEPTIDE1,1:R1-10:R2$$$V2.0) ?
1.46

The measured values listed here are drawn from ChEMBL document CHEMBL6074682.
